# test-target: Fyn (UniProt P06241)
# Sequence (P06241 whole entry, looked up): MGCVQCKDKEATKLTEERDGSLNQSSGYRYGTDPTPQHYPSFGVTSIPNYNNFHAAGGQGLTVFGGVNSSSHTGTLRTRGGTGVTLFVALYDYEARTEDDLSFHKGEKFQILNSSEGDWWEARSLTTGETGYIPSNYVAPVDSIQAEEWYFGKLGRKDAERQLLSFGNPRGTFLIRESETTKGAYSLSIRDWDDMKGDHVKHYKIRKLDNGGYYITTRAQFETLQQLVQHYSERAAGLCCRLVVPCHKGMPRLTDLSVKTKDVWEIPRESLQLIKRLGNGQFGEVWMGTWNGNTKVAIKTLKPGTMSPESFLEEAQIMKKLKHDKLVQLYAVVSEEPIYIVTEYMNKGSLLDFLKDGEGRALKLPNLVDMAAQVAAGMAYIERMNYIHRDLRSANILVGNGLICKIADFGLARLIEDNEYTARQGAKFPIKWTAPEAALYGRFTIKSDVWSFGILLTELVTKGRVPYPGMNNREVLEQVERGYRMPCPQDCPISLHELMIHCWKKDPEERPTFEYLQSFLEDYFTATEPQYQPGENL
# measurement-protocol: phosphorylation enrichment, bacterial display (enrichment ratio); higher = better substrate or ligand; peptides without Tyr show the background;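 note: 11-residue human phosphosite peptides and single-mutation variants displayed on the E. coli surface, counted by deep sequencing, each peptide's frequency after selection divided by its frequency in the unselected input library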;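 note: frequency after pTyr selection over input frequency; kinase dosed for 20-30% of maximal phosphorylation in three min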
Returns T if the recorded phosphorylation enrichment is greater than or equal to 0.5, and F otherwise.

Worked examples, 2 sequences total:
>  <sequence-chain>
SGGLDYGMVGG [TNRC6B_Y1382_M1380L]

>  <class-name>
T

$$$$
>  <sequence-chain>
EARRVYRDIIH [ALDH5A1_Y175_G176R]

>  <class-name>
F

$$$$

Query: Threshold query (phosphorylation enrichment >= 0.5) on YGAHNHHPLPV [OAT_Y55_Y55H]
Result: F

Query: Threshold query (phosphorylation enrichment >= 0.5) on NDKLCYEVSSP [CDH13_Y66_R65C]
Result: T

Query: Threshold query (phosphorylation enrichment >= 0.5) on `TRTEAYAVSSF`
Result: F

Query: Threshold query (phosphorylation enrichment >= 0.5) on APQFTYAQGGQ [FLNA_Y1763_YF]
Result: T

Query: Threshold query (phosphorylation enrichment >= 0.5) on AGQEKYSAMRD [HRAS_Y64_E63K]
Result: F

Query: Threshold query (phosphorylation enrichment >= 0.5) on NRDNTYNPVSE [FGA_Y127_R129P]
Result: T

###

# test-target: Fes (UniProt P07332)
# Sequence (P07332 whole entry, looked up): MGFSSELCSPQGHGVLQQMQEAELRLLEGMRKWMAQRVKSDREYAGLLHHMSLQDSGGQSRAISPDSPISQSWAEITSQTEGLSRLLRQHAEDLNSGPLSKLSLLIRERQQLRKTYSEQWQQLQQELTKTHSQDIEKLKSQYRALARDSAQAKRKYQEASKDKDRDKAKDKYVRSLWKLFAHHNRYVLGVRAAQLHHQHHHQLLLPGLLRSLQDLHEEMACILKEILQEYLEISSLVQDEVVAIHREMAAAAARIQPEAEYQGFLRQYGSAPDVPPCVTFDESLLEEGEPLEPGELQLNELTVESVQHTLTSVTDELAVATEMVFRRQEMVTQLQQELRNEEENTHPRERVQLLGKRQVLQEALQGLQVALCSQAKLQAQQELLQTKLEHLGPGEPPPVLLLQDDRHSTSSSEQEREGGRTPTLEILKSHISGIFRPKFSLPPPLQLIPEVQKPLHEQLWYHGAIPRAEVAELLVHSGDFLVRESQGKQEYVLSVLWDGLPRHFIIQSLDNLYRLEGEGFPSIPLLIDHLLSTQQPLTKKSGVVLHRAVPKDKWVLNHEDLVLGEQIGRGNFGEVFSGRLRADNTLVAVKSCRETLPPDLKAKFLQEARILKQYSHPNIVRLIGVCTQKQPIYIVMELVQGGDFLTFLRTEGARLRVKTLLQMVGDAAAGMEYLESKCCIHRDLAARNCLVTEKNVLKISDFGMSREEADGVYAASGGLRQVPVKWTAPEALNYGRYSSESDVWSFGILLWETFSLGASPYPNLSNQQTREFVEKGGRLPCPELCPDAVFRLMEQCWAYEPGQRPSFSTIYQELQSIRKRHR
# measurement-protocol: phosphorylation enrichment, bacterial display (enrichment ratio); higher = better substrate or ligand; peptides without Tyr show the background
Returns MET if the recorded phosphorylation enrichment is greater than or equal to 1, and NOT MET otherwise.

>  <sequence-chain>
KSSDVYVSFDC [SORL1_Y136_Y141C_YF]

>  <class-name>
MET

$$$$
>  <sequence-chain>
LLLLFCVVRYC [MPZ_Y177_Y177C]

>  <class-name>
MET

$$$$
>  <sequence-chain>
FQRITYHNWRH [PDE6B_Y556_R552Q_YF]

>  <class-name>
NOT MET

$$$$
>  <sequence-chain>
QGCGIYKDYYR [PLA2G2D_Y82_S80G]

>  <class-name>
MET

$$$$

Next:
Query: Threshold query (phosphorylation enrichment >= 1) on DTLASYLDKVR [KRT12_Y139_R135T]
Result: NOT MET

###

# test-target: EPHB1 (UniProt P54762)
# Sequence (P54762 whole entry, looked up): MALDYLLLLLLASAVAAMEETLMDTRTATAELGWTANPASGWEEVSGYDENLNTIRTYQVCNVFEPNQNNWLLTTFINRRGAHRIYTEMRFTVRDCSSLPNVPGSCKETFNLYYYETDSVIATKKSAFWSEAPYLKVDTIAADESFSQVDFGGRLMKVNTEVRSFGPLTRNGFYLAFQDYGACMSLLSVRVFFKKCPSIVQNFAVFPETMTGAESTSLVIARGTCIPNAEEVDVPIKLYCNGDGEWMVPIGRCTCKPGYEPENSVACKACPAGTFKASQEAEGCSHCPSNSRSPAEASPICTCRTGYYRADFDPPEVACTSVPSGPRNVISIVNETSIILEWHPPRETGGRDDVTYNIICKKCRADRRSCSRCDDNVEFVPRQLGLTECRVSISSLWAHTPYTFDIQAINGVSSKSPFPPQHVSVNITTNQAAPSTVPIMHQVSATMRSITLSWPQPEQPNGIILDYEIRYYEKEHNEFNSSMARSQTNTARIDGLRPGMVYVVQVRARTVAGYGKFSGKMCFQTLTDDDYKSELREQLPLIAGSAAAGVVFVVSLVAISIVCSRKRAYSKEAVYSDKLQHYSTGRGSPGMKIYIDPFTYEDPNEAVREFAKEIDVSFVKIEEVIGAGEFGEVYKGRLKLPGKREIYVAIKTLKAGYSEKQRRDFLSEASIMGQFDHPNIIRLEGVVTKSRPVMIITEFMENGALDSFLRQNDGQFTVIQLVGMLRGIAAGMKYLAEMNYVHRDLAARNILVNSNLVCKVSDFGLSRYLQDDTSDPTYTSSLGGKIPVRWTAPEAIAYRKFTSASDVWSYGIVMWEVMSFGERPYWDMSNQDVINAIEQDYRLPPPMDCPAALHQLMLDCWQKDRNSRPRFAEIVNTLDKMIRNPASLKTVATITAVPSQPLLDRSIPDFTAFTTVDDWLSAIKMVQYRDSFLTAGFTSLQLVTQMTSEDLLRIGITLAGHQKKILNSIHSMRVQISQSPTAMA
# measurement-protocol: phosphorylation enrichment, bacterial display (enrichment ratio); higher = better substrate or ligand; peptides without Tyr show the background
Give measured phosphorylation enrichment for each item. Keep answers brief.
Numbers only.

>  <sequence-chain>
LGNIVYSSLCG [BCOR_Y90_P85L]

>  <phosphorylation enrichment>
1.47

$$$$
>  <sequence-chain>
NFDLDYDSVQP [MYC_Y16_YF]

>  <phosphorylation enrichment>
1.28

$$$$
>  <sequence-chain>
DAVAVYHGKIS [SH2D1A_Y7]

>  <phosphorylation enrichment>
0.395

$$$$

Lab note: each sequence below needs its phosphorylation enrichment filled in.
1. DCLASYLDKVR [KRT10_Y160_R156C]
2. ETKTPYTVILI [SBDS_Y128_R126T]
3. QDDTVYMGKVT [DCTN1_Y1244]

Result:
[0.55, 0.543, 0.8]

Query: # query: phosphorylation enrichment of entry KTVQDYLEKFF [MMP8_Y36_YF]
Result: 0.504

###

# Tested on: AncSZ
# measurement-protocol: phosphorylation enrichment, bacterial display (enrichment ratio); higher = better substrate or ligand; peptides without Tyr show the background
readout-label: phosphorylation enrichment
Numbers only.

>  <sequence-chain>
MPQNEYIELHC [NSA2_Y6_R11C]

>  <test-target>
AncSZ

>  <quantitative-readout>
1.39

$$$$

Lab note: each sequence below needs its phosphorylation enrichment filled in.
1. LLGFLYFFVCS [SLC34A2_Y109]
2. EEGESYVCSSD [DCX_Y125]
3. LNTFHYAGVSA [POLR2A_Y1109]
4. VAVVQYSGTGQ [COL6A1_Y878]
5. NQILPYIKELV [PPP2R1B_Y341]
6. VGTKQYMAPEV [ACVRL1_Y375_R374Q]
7. DAVAVYHGKIS [SH2D1A_Y7]
8. QWRTKYETDTI [MYH7_Y1375_A1379T]

Result:
1: 1.66; 2: 1.31; 3: 0.656; 4: 0.517; 5: 1.01; 6: 0.678; 7: 0.593; 8: 0.819

Lab note: each sequence below needs its phosphorylation enrichment filled in.
1. IALNSCHSRNC [IFNGR1_Y397_Y397C]
2. KILPEYLSNWT [AIFM1_Y347]

Result:
1. 0.48
2. 0.995

Reference source: the supplement of paper PMC10065799
